test.target: human PAH with the R408W mutation (Homo sapiens, UniProt P00439, R408W)
Construct: expressed in transfected cells
Sequence (P00439 whole entry R408W): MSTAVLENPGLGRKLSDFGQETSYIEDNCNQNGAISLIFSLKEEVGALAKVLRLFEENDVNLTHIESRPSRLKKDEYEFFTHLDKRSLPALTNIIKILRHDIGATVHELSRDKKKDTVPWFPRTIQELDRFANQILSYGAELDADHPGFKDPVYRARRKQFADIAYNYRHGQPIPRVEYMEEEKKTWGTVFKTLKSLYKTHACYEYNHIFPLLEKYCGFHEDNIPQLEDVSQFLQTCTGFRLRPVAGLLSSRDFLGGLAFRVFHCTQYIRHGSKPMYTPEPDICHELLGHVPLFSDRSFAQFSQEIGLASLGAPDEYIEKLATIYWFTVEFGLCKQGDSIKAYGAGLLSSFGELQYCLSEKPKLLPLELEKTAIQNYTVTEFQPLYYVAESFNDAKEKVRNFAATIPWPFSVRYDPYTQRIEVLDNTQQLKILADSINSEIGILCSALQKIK
protocol: Cell Based Phenylalanine Flux Assay
setup.conditions: A375 cells expressing R408W PAH; 24 hrs with compound, then 20 µM sepiapterin and 800 µM 13C9,15N-Phenylalanine for 4 hours; 13C-Tyrosine by LC-MS; average where tested multiple times; read-out: AC50
experimental.endpoint: AC50

compound="Cn1ccc(-c2nc(C(F)F)c(C(=O)N3CCc4[nH]cnc4C3c3cc4ccccn4n3)o2)n1 (centres unmarked)" observed_result="> 5 µM"
compound="Cn1nc(C2CC2)nc1C(=O)N1CCc2[nH]cnc2C1c1cc2cccc(Cl)n2n1 (centres unmarked)" observed_result="1 to 5 µM"
compound="O=C(c1nnc(-c2ccccn2)o1)N1CCc2[nH]cnc2C1c1cc2cc(C(F)(F)F)ccn2n1 (centres unmarked)" observed_result="1 to 5 µM"
compound="Cc1nnc(N2CCc3[nH]cnc3C2c2cc3cccc(C(F)(F)F)n3n2)o1 (centres unmarked)" observed_result="1 to 5 µM"
compound="Cc1nc(-c2ccccn2)oc1C(=O)N1CCc2[nH]cnc2C1c1cc2ccccn2n1 (centres unmarked)" observed_result="> 5 µM"

---

Overview of recorded AC50 for various compounds
test.target: human PAH with the R408W mutation (Homo sapiens, UniProt P00439, R408W)
Construct: expressed in transfected cells
protocol: Cell Based Phenylalanine Flux Assay;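 also: after compound treatment, cells received sepiapterin plus isotope-labelled Phenylalanine for 4 hours, then labelled Tyrosine in the medium was quantified, 10-point 2-fold dilution series run in duplicate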
setup.conditions: A375 cells expressing R408W PAH; 24 hrs with compound, then 20 µM sepiapterin and 800 µM 13C9,15N-Phenylalanine for 4 hours; 13C-Tyrosine by LC-MS; average where tested multiple times; read-out: AC50
experimental.endpoint: AC50

compound="c1ccn2nc([C@@H]3c4nc[nH]c4CCN3c3nnc(N4CCOCC4)o3)cc2c1 (single isomer, unassigned)" test_target="human PAH with the R408W mutation (Homo sapiens, UniProt P00439, R408W)" observed_result="> 5 µM"
compound="FC1(F)CC(c2nnc(N3CCc4[nH]cnc4C3c3cc4c(Cl)cccn4n3)o2)C1 (stereo not shown)" test_target="human PAH with the R408W mutation (Homo sapiens, UniProt P00439, R408W)" observed_result="1 to 5 µM"
compound="Cc1nnc(C(=O)N2CCc3[nH]cnc3C2c2cc3cccc(F)n3n2)o1 (stereo not shown)" test_target="human PAH with the R408W mutation (Homo sapiens, UniProt P00439, R408W)" observed_result="1 to 5 µM"
compound="Cc1cccc2cc(C3c4nc[nH]c4CCN3c3nnc(C4CC4)o3)nn12 (stereo not shown)" test_target="human PAH with the R408W mutation (Homo sapiens, UniProt P00439, R408W)" observed_result="1 to 5 µM"
compound="Cc1cccc2cc(C3c4nc[nH]c4CCN3C(=O)c3nc(C4CC4)nn3C)nn12 (stereo not shown)" test_target="human PAH with the R408W mutation (Homo sapiens, UniProt P00439, R408W)" observed_result="1 to 5 µM"
compound="Cc1cccc2cc(C3c4nc[nH]c4CCN3c3nnc(C4CCC4)o3)nn12 (stereo not shown)" test_target="human PAH with the R408W mutation (Homo sapiens, UniProt P00439, R408W)" observed_result="> 5 µM"
compound="O=C(c1cnn(-c2ccccn2)c1Cl)N1CCc2[nH]cnc2C1c1cc2ccccn2n1 (stereo not shown)" test_target="human PAH with the R408W mutation (Homo sapiens, UniProt P00439, R408W)" observed_result="1 to 5 µM"
compound="COc1cccn2nc([C@@H]3c4nc[nH]c4CCN3C(=O)c3nnc(-c4ccn(C)n4)o3)cc12 (single isomer, unassigned)" test_target="human PAH with the R408W mutation (Homo sapiens, UniProt P00439, R408W)" observed_result="1 to 5 µM"
compound="O=C(c1cnn2cc(N3CCOCC3)ccc12)N1CCc2[nH]cnc2C1c1cc2ccccn2n1 (stereo not shown)" test_target="human PAH with the R408W mutation (Homo sapiens, UniProt P00439, R408W)" observed_result="1 to 5 µM"
compound="CC(C)(F)c1nnc(N2CCc3[nH]cnc3C2c2cc3c(C(F)F)cccn3n2)o1 (stereo not shown)" test_target="human PAH with the R408W mutation (Homo sapiens, UniProt P00439, R408W)" observed_result="> 5 µM"
compound="Cn1cc(-c2ncc(C(=O)N3CCc4[nH]cnc4C3c3cc4c(F)cccn4n3)o2)cn1 (stereo not shown)" test_target="human PAH with the R408W mutation (Homo sapiens, UniProt P00439, R408W)" observed_result="1 to 5 µM"
compound="FC(F)c1cccn2nc(C3c4[nH]cnc4CCN3c3nnc(-c4ccccn4)o3)cc12 (stereo not shown)" test_target="human PAH with the R408W mutation (Homo sapiens, UniProt P00439, R408W)" observed_result="1 to 5 µM"
compound="Cc1cccn2nc(C3c4nc[nH]c4CCN3c3nnc(-c4cccnc4)o3)cc12 (stereo not shown)" test_target="human PAH with the R408W mutation (Homo sapiens, UniProt P00439, R408W)" observed_result="1 to 5 µM"
compound="c1cnnc(-c2nnc(N3CCc4[nH]cnc4C3c3cc4c(C5CC5)cccn4n3)o2)c1 (stereo not shown)" test_target="human PAH with the R408W mutation (Homo sapiens, UniProt P00439, R408W)" observed_result="1 to 5 µM"
compound="Cc1nnc(N2CCc3[nH]cnc3C2c2cc3c(OC(F)F)cccn3n2)o1 (stereo not shown)" test_target="human PAH with the R408W mutation (Homo sapiens, UniProt P00439, R408W)" observed_result="1 to 5 µM"
compound="O=C(c1ncco1)N1CCc2[nH]cnc2C1c1cc2c(F)cccn2n1 (stereo not shown)" test_target="human PAH with the R408W mutation (Homo sapiens, UniProt P00439, R408W)" observed_result="1 to 5 µM"
compound="COc1cccn2nc(C3c4nc[nH]c4CCN3C(=O)c3ocnc3C(F)F)cc12 (stereo not shown)" test_target="human PAH with the R408W mutation (Homo sapiens, UniProt P00439, R408W)" observed_result="1 to 5 µM"
compound="Cc1nnc(C(=O)N2CCc3[nH]cnc3[C@@H]2c2cc3cccc(C(F)(F)F)n3n2)o1 (single isomer, unassigned)" test_target="human PAH with the R408W mutation (Homo sapiens, UniProt P00439, R408W)" observed_result="1 to 5 µM"
compound="Cc1ccc2c(C(=O)N3CCc4[nH]cnc4C3c3cc4cccc(Cl)n4n3)cnn2c1 (stereo not shown)" test_target="human PAH with the R408W mutation (Homo sapiens, UniProt P00439, R408W)" observed_result="1 to 5 µM"

The values you see were collected from patent US20230365592A1.
